test: Cytotoxicity against human Raji cells assessed as cell viability at 100 molar ratio; type: cell-based; details: read-out: Activity
Some compounds, each annotated with its measured viability at 100 molar ratio.
endpoint: viability at 100 molar ratio

In [3]: df
Out[3]:
                                smilesentry                      endpoint  observedvalue
0  C/C1=C\C=C(\[C@@](C)(O)CO)CC(=O)/C(C)=C/CC[C@]2(C)O[C@H]2CC1  viability at 100 molar ratio          > 80%
1  C/C1=C\C=C(\[C@@](C)(O)CO)CC/C(C=O)=C/CC[C@]2(C)O[C@H]2CC1  viability at 100 molar ratio          > 80%
2  C/C(CO)=C1\CC/C(C)=C/CC[C@]2(C)O[C@H]2CC/C(C)=C/[C@@H]1O  viability at 100 molar ratio          > 80%
3  CC1=C2C[C@H](O)/C(C)=C/CC[C@]3(C)O[C@H]3CC/C(C)=C/[C@@H]2OC1=O  viability at 100 molar ratio          > 80%

Ref: ChEMBL document CHEMBL1150156
